Molecular target: Homeobox protein Hox-A13 (Mus musculus) (UniProt Q62424)
Sequence (Q62424 whole entry, looked up): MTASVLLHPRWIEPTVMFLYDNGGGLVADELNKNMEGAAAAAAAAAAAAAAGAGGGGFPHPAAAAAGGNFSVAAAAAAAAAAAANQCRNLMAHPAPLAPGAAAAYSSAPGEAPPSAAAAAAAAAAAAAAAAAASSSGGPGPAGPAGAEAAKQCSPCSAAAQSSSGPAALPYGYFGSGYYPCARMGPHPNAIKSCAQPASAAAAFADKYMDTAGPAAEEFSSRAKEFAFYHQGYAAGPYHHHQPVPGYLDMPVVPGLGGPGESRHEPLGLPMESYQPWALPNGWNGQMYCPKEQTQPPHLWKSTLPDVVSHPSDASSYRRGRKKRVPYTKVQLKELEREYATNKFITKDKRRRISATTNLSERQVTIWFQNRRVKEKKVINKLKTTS
Assay: inhibitors of HoxA13-DNA binding, primary screen, biochemical, fluorescence polarization, labeled oligonucleotide (AID 1185)
Settings: 15 min, higher = more signal, called active from +8 up or from −8 down
MEASURED_PARAMETER: z-score
Give a plain numeric answer without units written out.

Param readout = z-score; param system = Homeobox protein Hox-A13 (Mus musculus) (UniProt Q62424); param query = CC(C)N1CC=CC23O[C@@H]4/C=C\CCCOC(=O)C4[C@H]2C(=O)N(CCCCCCO)[C@@H]3C1=O (some centres undefined) ; response: value -5.14

Param readout = z-score; param system = Homeobox protein Hox-A13 (Mus musculus) (UniProt Q62424); param query = COCC(=C=CC[C@@H](O)c1ccc(OCCO)cc1)CCO ; response: value -3.22

Param readout = z-score; param system = Homeobox protein Hox-A13 (Mus musculus) (UniProt Q62424); param query = C=C(CCCC)C(=O)CC[C@@H](OC(=O)c1cccnc1)c1ccc(OCCO)cc1 ; response: value -3.82

Param readout = z-score; param system = Homeobox protein Hox-A13 (Mus musculus) (UniProt Q62424); param query = NC(=O)[C@H]1[C@@H]2C(=O)O[C@@H](c3ccccc3)[C@@H](c3ccccc3)N2[C@@H](c2ccc(O)cc2)[C@]12C(=O)Nc1ccccc12 ; response: value -5.09

* * *

Test: basal HepG2 mitochondrial membrane potential changes, profiling panel, cell-based, JC-1 fluorescence, 24 h, 100 nL compound (AID 1167); also: test concentration not given here
Settings: higher = more signal
Please use YES whenever z-score is not below -0.3, and NO whenever it is.

Test whether the molecule CCCCC(=C=CC[C@H](O)c1ccc(OCCO)cc1)C[C@H](O)c1cc(Cl)cc(Cl)c1O records z-score of -0.3 or higher. NO

Test whether the molecule CCCCC(=O)N(CCN1CCOCC1)[C@@H]1CC(C(=O)NCCO)=C[C@H](Oc2c(I)cc(CO)cc2OC)[C@H]1O records z-score of -0.3 or higher. NO

Test whether the molecule Cc1ccccc1C(O)C1C=CC2C(=O)N(c3ccccc3)C(=O)C2N1Nc1ccc([N+](=O)[O-])cc1 (stereo not drawn) records z-score of -0.3 or higher. NO

Test whether the molecule [N-]=[N+]=NCc1ccccc1C[C@@]1(C(=O)N2CCCCC2)N=C(c2ccc(OCCCO)cc2)O[C@@H]1c1ccccc1CN=[N+]=[N-] records z-score of -0.3 or higher. NO

Test whether the molecule Cc1ccc(S[C@]2(C(=O)NC(C)C)CC(=O)N(C(C)C)[C@@H]2c2ccc(CO)cc2I)cc1 records z-score of -0.3 or higher. YES

Test whether the molecule CCOC(=O)C1=C[C@@H](C(C)(C)C)N(S(=O)(=O)c2ccc(C)cc2)[C@H]1c1ccc(C)cc1 records z-score of -0.3 or higher. YES

Test whether the molecule CS(=O)(=O)CCOC(=O)C1=CC(CCCO)=CC(C2CC2)N(Cc2cccc(OC(F)(F)F)c2)C=C1C(=O)OCCS(C)(=O)=O (stereo not drawn) records z-score of -0.3 or higher. YES

Test whether the molecule CN(C)CCCC[C@@H]1NC(=O)[C@@H]2C[C@H](C(=O)O)[C@H](c3cccc(OCCO)c3)N2C1=O records z-score of -0.3 or higher. YES

Test whether the molecule COCCOC(=O)N1C(=O)[C@@]2(c3cc(C#CCC(C(=O)OC)C(=O)OC)ccc31)[C@H](C(=O)NC[C@H](O)c1ccccc1)[C@H]1C(=O)O[C@H](c3ccccc3)[C@H](c3ccccc3)N1[C@@H]2c1ccc(OCCO)cc1 records z-score of -0.3 or higher. NO

Test whether the molecule CC(C)c1ccc(NN2C(C(O)Cc3ccccc3)C=CC3C(=O)N(c4ccccc4)C(=O)C32)cc1 (stereo not drawn) records z-score of -0.3 or higher. NO

Test whether the molecule CC(C)[C@H]1NC(=O)[C@@]23C(=O)N[C@@H](Cc4ccccc4)C2[C@H](C)[C@@]2(C)O[C@H]2C3/C=C/C/C=C\CNC(=O)[C@H](Cc2ccccc2)NC1=O (stereo partly drawn) records z-score of -0.3 or higher. YES

Test whether the molecule C=CCC(OC(C)=O)[C@@H]1[C@@H](N(Cc2ccc(-c3ccccc3)cc2)C(=O)c2ccc(C)cc2)c2cc(OCCCO)ccc2N1C(=O)Cc1ccc2ccccc2c1 (stereo partly drawn) records z-score of -0.3 or higher. YES

Test whether the molecule COc1ccc([Si](C)(C)[C@H]2[C@H](CCO)O[C@@]3(C(=O)N(Cc4ccccc4)c4ccc(N5C(=O)c6ccccc6Oc6ccccc65)cc43)[C@@H]2C)cc1 records z-score of -0.3 or higher. YES

Test whether the molecule CN(C)CCCCNC(=O)[C@H]1C[C@H]2C(=O)N[C@@H](CCCC[N+](C)(C)C)C(=O)N2[C@H]1c1ccc(O)cc1 records z-score of -0.3 or higher. NO

Test whether the molecule [N-]=[N+]=Nc1ccccc1C[C@]1(C(=O)O)N=C(c2ccc(OCCCO)cc2)O[C@H]1c1ccccc1N=[N+]=[N-] records z-score of -0.3 or higher. NO

Test whether the molecule CC(=O)NCCCC[C@@H]1NC(=O)[C@H]2C[C@@H](C(=O)NCCCCCNC(=O)CS)[C@@H](c3cccc(OCCO)c3)N2C1=O records z-score of -0.3 or higher. YES

Test whether the molecule O=C(NCC(O)CO)[C@@]1(CCS(=O)(=O)c2ccccc2)COC(c2ccc(OCCCO)cc2)=N1 (stereo partly drawn) records z-score of -0.3 or higher. NO

Test whether the molecule C=C/C=C/[C@@H]1C(=C)CN([C@@H](Cc2ccccc2)C(=O)OC)[C@H]1[C@@H](O)Cc1ccccc1 records z-score of -0.3 or higher. YES

Test whether the molecule C=CCN1C(=O)[C@]2(O[C@H](CCO)[C@@H]([Si](C)(C)c3ccc(OC)cc3)[C@@H]2C)c2cc(NC(=O)c3ccc(OC)cc3)ccc21 records z-score of -0.3 or higher. NO

Test whether the molecule O=C1NC(=O)C2C1C=CC(C(O)c1ccccn1)N2Nc1ccc(Cl)cc1Cl (stereo not drawn) records z-score of -0.3 or higher. NO

Test whether the molecule CCOC(=O)C[C@H]1[C@H](OC(=O)c2cc3ccccc3oc2=O)[C@@H](NC(=O)c2ccc3ccccc3c2)c2cc(OCCCO)ccc2N1C(=O)Cc1ccc(OC)cc1 records z-score of -0.3 or higher. NO

Test whether the molecule COCCOC(=O)N1C(=O)[C@@]2(c3ccccc31)[C@H](c1ccccc1OCCO)N1[C@H](c3ccccc3)[C@H](c3ccccc3)OC(=O)[C@H]1[C@@H]2C(=O)N1CCCCCCC1 records z-score of -0.3 or higher. YES

Test whether the molecule CCCC=C(CCC)[C@@H](NC(=O)CCc1ccccc1)c1ccc(C(F)(F)F)cc1 records z-score of -0.3 or higher. YES

Test whether the molecule C=C(C)[C@@H]1CC=C(C(O)C2C=CC3C(=O)N(c4ccccc4)C(=O)C3N2Nc2ccc(C#N)cc2)CC1 (stereo partly drawn) records z-score of -0.3 or higher. NO

Test whether the molecule CCc1cccc(NC(=O)O[C@H]2[C@H](OC(=O)Nc3ccccc3)[C@H](OC(=O)Nc3ccccc3)[C@@H](OC)O[C@@H]2CO)c1 records z-score of -0.3 or higher. NO

Test whether the molecule COc1cc2c(cc1OC)CN(C(=O)[C@@H]1[C@H]3C(=O)O[C@H](c4ccccc4)[C@H](c4ccccc4)N3[C@H](c3ccc(O)cc3)[C@@]13C(=O)Nc1ccc(C#CCCO)cc13)CC2 records z-score of -0.3 or higher. NO

Test whether the molecule C=C(CCCC)C(=O)CC[C@H](OC(=O)c1ccccc1-c1ccccc1C(=O)O)c1ccccc1OCCO records z-score of -0.3 or higher. NO
